Target: Centromere-associated protein E (Homo sapiens, UniProt Q02224)
Sequence (Q02224 whole entry, the tested form may be a part): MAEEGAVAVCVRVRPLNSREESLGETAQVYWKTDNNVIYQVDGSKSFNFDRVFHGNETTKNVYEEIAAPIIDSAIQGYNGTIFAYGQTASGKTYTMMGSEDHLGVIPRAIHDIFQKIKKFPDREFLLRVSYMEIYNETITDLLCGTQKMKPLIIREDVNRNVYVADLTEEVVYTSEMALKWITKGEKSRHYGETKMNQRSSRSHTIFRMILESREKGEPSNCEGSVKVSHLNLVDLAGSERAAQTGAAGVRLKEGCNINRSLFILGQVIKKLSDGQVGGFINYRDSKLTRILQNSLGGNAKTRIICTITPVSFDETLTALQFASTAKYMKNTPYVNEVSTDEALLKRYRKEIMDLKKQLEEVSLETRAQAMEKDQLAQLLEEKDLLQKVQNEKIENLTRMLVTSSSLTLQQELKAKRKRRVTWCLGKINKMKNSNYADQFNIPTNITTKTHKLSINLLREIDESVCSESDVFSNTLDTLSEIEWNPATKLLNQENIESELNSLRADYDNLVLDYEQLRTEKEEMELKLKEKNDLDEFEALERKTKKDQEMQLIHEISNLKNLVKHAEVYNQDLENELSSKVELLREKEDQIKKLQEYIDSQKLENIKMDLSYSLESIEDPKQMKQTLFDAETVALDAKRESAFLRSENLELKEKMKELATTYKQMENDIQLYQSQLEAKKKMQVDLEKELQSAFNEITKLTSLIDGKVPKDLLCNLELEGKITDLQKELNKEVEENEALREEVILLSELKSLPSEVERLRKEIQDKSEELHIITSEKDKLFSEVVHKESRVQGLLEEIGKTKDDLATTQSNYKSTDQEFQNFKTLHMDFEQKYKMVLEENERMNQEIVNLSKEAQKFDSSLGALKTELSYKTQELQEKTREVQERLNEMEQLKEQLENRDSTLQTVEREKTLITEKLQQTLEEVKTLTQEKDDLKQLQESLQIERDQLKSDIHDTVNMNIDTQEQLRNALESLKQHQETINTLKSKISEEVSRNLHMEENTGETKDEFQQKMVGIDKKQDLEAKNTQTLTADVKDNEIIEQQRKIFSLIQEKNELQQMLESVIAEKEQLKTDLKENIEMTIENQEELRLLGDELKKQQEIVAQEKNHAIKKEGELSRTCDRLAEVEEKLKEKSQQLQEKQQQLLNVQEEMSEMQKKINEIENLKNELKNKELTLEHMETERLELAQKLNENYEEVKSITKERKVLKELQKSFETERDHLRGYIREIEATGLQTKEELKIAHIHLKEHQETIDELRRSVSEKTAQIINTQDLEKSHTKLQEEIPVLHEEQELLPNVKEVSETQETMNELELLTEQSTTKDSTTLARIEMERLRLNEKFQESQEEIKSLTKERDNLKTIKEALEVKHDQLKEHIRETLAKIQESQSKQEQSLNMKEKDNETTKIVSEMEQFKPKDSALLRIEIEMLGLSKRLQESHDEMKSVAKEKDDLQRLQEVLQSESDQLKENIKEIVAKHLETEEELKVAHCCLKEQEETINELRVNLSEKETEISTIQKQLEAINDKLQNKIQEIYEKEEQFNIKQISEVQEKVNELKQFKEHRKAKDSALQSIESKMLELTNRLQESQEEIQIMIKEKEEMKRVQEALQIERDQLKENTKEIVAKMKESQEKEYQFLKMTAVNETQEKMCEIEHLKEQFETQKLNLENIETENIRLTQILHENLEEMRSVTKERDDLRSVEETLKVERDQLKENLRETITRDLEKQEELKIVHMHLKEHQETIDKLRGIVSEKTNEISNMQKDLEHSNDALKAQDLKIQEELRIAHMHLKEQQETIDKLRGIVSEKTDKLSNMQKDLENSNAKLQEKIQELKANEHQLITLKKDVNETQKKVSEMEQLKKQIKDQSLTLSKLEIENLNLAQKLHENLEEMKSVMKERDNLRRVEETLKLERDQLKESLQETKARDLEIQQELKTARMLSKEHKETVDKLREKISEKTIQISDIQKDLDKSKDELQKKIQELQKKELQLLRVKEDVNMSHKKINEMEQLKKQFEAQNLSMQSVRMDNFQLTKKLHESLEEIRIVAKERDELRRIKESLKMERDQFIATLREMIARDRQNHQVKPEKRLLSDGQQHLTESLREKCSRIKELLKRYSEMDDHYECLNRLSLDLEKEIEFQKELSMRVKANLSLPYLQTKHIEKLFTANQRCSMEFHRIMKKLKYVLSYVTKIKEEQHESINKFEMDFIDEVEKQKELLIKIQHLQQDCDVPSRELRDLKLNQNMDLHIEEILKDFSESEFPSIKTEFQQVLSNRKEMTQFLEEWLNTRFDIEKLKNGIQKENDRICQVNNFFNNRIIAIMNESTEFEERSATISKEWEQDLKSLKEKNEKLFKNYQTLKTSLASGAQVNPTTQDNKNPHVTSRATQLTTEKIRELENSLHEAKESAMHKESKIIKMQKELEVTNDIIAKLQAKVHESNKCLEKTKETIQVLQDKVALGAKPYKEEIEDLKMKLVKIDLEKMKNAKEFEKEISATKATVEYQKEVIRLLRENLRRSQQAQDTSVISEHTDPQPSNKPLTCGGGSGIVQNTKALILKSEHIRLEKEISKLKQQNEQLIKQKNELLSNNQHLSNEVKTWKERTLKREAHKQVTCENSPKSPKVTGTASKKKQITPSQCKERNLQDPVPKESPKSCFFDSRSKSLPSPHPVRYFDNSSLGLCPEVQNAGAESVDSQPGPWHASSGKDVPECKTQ
Experiment: Inhibition of human ATPase activity of CENP-E motor domain assessed as ADP production after 60 mins by ADP-Glo luminescence assay
parameter: IC50 (nM)

Previously resolved entries follow.
Recorded IC50 (compound `CN(Cc1ccc(Cl)c(Cl)c1)C(=O)c1c(-c2ccc(F)cc2)c2cscc2c(=O)n1C` ): 1500

Recorded IC50 (compound `CN(C)CCn1c(C(=O)N(C)Cc2ccc(Cl)c(Cl)c2)c(-c2ccc(F)cc2)c2cscc2c1=O` ): 72

Recorded IC50 (compound `CN(C)CCN(Cc1ccc(Cl)c(Cl)c1)C(=O)c1cc2sccc2n1-c1ccc(F)cc1` ): 2000

[1] CN(C)CCN(Cc1ccc(Cl)c(Cl)c1)C(=O)c1cc2scc(C(F)(F)F)c2n1-c1ccc(F)cc1
[2] Cc1csc2cc(C(=O)N(CCN(C)C)Cc3ccc(Cl)c(Cl)c3)n(-c3ccc(F)cc3)c12
### Prompt In the pair 1 and 2 , the larger recorded IC50 belongs to which? Give the label under which the chosen entry appears.
### Response 2

###

Target: Centromere-associated protein E (Homo sapiens)
Experiment: Inhibition of ATPase activity of CENP-E motor domain (unknown origin) by high throughput screening assay
parameter: IC50 (µM)

Recorded IC50 (compound `CN(Cc1cc(C(F)(F)F)cc(C(F)(F)F)c1)C(=O)c1c(-c2ccc(F)cc2)c2cscc2c(=O)n1C` ): 2.1

Recorded IC50 (compound `CN(Cc1ccc(Cl)c(Cl)c1)C(=O)c1c(-c2ccc(F)cc2)c2cscc2c(=O)n1C` ): 1.5

###

Tested on: HeLa
Assay: Induction of mitotic arrest in human HeLa cells assessed as accumulation of phosphorylated histone H3 after 16 hrs by FACS analysis
Type: functional, cell-based
parameter: EC50 (nM)

[I] CN(C)CCN(Cc1ccc(Cl)c(Cl)c1)C(=O)c1nc2cccc(Br)n2c1-c1ccc(F)cc1
[II] CN(C)CCN(Cc1ccc(Cl)c(Cl)c1)C(=O)c1cc2scc(Br)c2n1-c1ccc(F)cc1
### Prompt Hey, between I and II which has a smaller measured EC50? Give the label under which the chosen entry appears.
### Response I

###

Biological target: UniProt Q02224
Assay: Inhibition of human ATPase activity of CENP-E motor domain assessed as ADP production after 60 mins by ADP-Glo luminescence assay
parameter: IC50 (µM)

Previously resolved entries follow.
// IC50 (UniProt Q02224) for `CN(C)CCN(Cc1ccc(Cl)c(Cl)c1)C(=O)c1cc2scc(Br)c2n1-c1ccc(F)cc1` = 0.032

// IC50 (UniProt Q02224) for `CN(C)CCN(Cc1ccc(Cl)c(Cl)c1)C(=O)c1c(-c2ccc(F)cc2)c2ccccc2n1C` = 8.5

// IC50 (UniProt Q02224) for `CN(Cc1ccc(Cl)c(Cl)c1)C(=O)c1c(-c2ccc(F)cc2)c2cscc2c(=O)n1CCO` = 1.8

// IC50 (UniProt Q02224) for `CN(C)CCN(Cc1ccc(Cl)c(Cl)c1)C(=O)c1nc2cccc(Br)n2c1-c1ccc(F)cc1` = 0.05

// IC50 (UniProt Q02224) for `Cc1c(C(=O)N(CCN(C)C)Cc2ccc(Cl)c(Cl)c2)n(-c2ccc(F)cc2)c2ccccc12` = 2.1

[P] CN(C)CCN(Cc1ccc(Cl)c(Cl)c1)C(=O)c1cc2scc(Cl)c2n1-c1ccc(F)cc1
[Q] CN(C)CCN(Cc1ccc(Cl)c(Cl)c1)C(=O)c1c(-c2ccc(F)cc2)c2cscc2c(=O)n1C
### Prompt In the pair P and Q , the larger recorded IC50 belongs to which? Give the label under which the chosen entry appears.
### Response Q

[P] CN(C)CCCn1c(C(=O)N(C)Cc2ccc(Cl)c(Cl)c2)c(-c2ccc(F)cc2)c2cscc2c1=O
[Q] CN(C)CCN(Cc1ccc(Cl)c(Cl)c1)C(=O)c1cc2scc(C#N)c2n1-c1ccc(F)cc1
### Prompt Hey, between P and Q which has a smaller measured IC50? Give the label under which the chosen entry appears.
### Response P
